B1: LINE1-full (parent)
chain: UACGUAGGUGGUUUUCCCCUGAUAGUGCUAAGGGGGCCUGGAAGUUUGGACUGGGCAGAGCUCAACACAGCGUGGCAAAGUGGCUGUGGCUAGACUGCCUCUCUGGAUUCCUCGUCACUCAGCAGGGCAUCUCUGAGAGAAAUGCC

Variants of: B1
experiment description: self-cleavage, relative activity (ratio to wild type); higher = more cleavage; in vitro, sequencing; the parent is a self-cleaving ribozyme
Below, each entry is listed alongside its reported self-cleavage.

Observe how each entry below is paired with its result.
UACGUAGGUGGUUUUCCCCUGAUAGUGCUAAGGGGGCCUGGAAGUUUGGACUGGGCAGAGCUCAACACAGCGUUGCAAAGUGGCUGUGGCUAGACUGCCUCUCUGGGUUCCUCGUCACUCAGCAGGGCAUCUCUGAGAGAAAUGCC
0.51
UACGUAGGUGGUUUUCCCCUGAUAGUGCUAAGGGGGCCUGGAAGUUUGGACUGGGCAGAGCUCAACACAGCGUGGCAAAGUGGCCGUGGCUAGACUGCCUCUCUGGAUUCCUCGUCACUCAACAGGGCAUCUCUGAGAGAAAUGCC
0.14
UACGUAGGUGGUUUUCCCCUGAUAGUGCUAAGGGGGCCUGGAAGUUUGGACUGGGCAGAGCUCAACACAGCGUGGCUAAGUGGCUGUGGCUAGACUGCCUCCCUGGAUUCCUCGUCACUCAGCAGGGCAUCUCUGAGAGAAAUGCC
1.24
UACGUAGGUGGUUUUCCCCUGUUAGUGCUAAGGGGGCCUGGAAGUUUGGACUGGGCAGAGCUCAACACAGCGUGGCAAAGUGGCUGUGGCUAGACUGCCUCUCUGGAUUCCUCGUCACUCAGAAGGGCAUCUCUGAGAGAAAUGCC
1.17

The value of self-cleavage measured for the variant UACGUAGGUGGUUUUCCCCUGAUAGUGCUAAGGGGGCCUGGAAGUUUGGACUGGGCAGAGCUCAACACAGCGUGGCAAAGUGGCUGUGGCUAGACUACCUCUCUGGACUCCUCGUCACUCAGCAGGGCAUCUCUGAGAGAAAUGCC turned out to be 0.17

The value of self-cleavage measured for the variant UACGUAGGUGGUUUUCCCCUGAUAGUGCUAAGGGGGCCGGGAAGUUUGGACUGGGCAGAGCUCAACACAGCGUGGCAAAGUGGCUGUGGCUAGACUGCCUCUCUGGAUCCCUCGUCACUCAGCAGGGCAUCUCUGAGAGAAAUGCC turned out to be 1.87
